Biological target: SARS-CoV-2 B.1.1.7 (S protein) (SARS-CoV-2 variant B.1.1.7) (UniProt P0DTC2)
Assay: SPR
Details: SPR (BIAcore T200, […], pH not stated
pKd: −log10 of the molar value.

{"RESIDUE CODES": "CAGCACCGACCTTGTGCTTTGGGAGTGCTGGTCCAAGGGCGTTAATGGACA [51-nt SARS-CoV-2 aptamer (Song et al.), SPR form]", "pKd": 6.00}
